Note to self: these compounds have pIC50 reported for UniProt P03951 in various publications.
pIC50: −log10 of the molar value.
observation-type: pIC50

Use the examples below as a reference point.
# compound, pIC50
data = [
    ("O=C(Nc1cnn(Cc2cnc(N3CC4CC4C3CO)nc2)c1)c1cncc(-c2c(C(F)F)ccc(Cl)c2F)n1 (single isomer, unassigned)", 5.54),
    ("CCC(c1cc(C)c2nc[nH]c2c1)n1cc(C(=O)N2CCC[C@@]3(C2)OC(=O)Nc2ccc(Cl)c(F)c23)cn1 (single isomer, unassigned)", 6.07),
    ("CC1(C)CN(C(=O)c2cnn(-c3ccccc3)c2N)C[C@]2(C1)OC(=O)Nc1ccc(Cl)c(F)c12", 5.34),
    ("O=C1Nc2ccc(Cl)c(F)c2[C@@]2(CCCN(C(=O)c3cnc(Cc4ccc(F)cc4)[nH]3)C2)O1", 5.34),
    ("Nc1c(Cl)c(C2CC2)nn1CC(=O)N1CCC[C@@]2(C1)OC(=O)Nc1ccc(Cl)c(F)c12", 5.90),
]

1: O=C(Nc1cnn(Cc2cnc(N3CCC3)nc2)n1)c1cncc(-c2c(C(F)F)ccc(Cl)c2F)n1
2: Cc1cc(C(=O)NC(C)C)ccc1-c1ccc(C[C@@H](NC(=O)C2CCC(CN)CC2)C(=O)Nc2ccc3cn[nH]c3c2)cc1 (single isomer, unassigned; enantiomer 1)
Task item: Hi, I'm comparing two records. Which one has the lower pIC50, 1 or 2 ? Selection: enter the item's label.
Reply: 1

a: COCCC(C(=O)Nc1ccn2ncnc2c1)n1cc2c(cc1=O)-c1cc(Cl)ccc1CC(C(F)(F)F)OC2 (mixture of isomers)
b: COc1cn([C@@H](CCOC(C)(C)C)C(=O)Nc2ccc(C(=O)O)cc2)c(=O)cc1-c1cc(Cl)ccc1OC(F)F (single isomer, unassigned; enantiomer 2)
Task item: Which has the higher pIC50, a or b ? Selection: enter the item's label.
Reply: b
(b: 8.82, a: 7.38)
